Attribution: patent US20230293526A1

System: U87MG
Assay: Cell proliferation Ex.3
Format: cell-based
Conditions: Homo sapiens, U-87 MG, 168 h
Procedure: A dose response relationship on cell proliferation was assessed for Compound 13 on 140 tumor cell lines. […] Cells were cultured in the appropriate media. […] […] on the medium, cell plates were equilibrated to room temperature for one hour, CellTiterGlo reagent (Promega) was added and luminescence was measured approximately an hour later using a luminometer. […]
Measure Name: IC50

IC50 measured on C#C[C@]1(CO)O[C@@H](n2cc(F)c(N)nc2=O)C[C@@H]1O [compound 9] = > 10 µM

====

tested on: SU-DHL-6; test: Cell proliferation Ex.3; assay type: cell-based; settings: Homo sapiens, SU-DHL-6, 120 h
Measure Name: IC50 (µM)
Your answer should be a plain number; it is taken to be in µM.

IC50 measured on `C#C[C@]1(CO)O[C@@H](n2cc(F)c(N)nc2=O)C[C@@H]1O` = 4.99

====

test system: human LINE-1; assay: Human LINE-1 (L1) retrotransposition dual-luciferase reporter assay in HeLa cells; format: cell-based; conditions: 72 hours, read-out: Human LINE-1 IC50 (Human L1 activity inhibition)
Measure Name: pIC50
Note on pIC50: it is the negative log10 of concentration, concentration in mol/L.

Compound | Test Result
C#C[C@]1(CO)O[C@@H](n2cnc3c(N)nc(N)nc32)C[C@@H]1O [compound 22] | 4.63
C#C[C@]1(CO)O[C@@H](n2cnc3c(N)nc(N)nc32)C[C@@H]1O [compound 12] | 8.21
CC[C@]1(CO)O[C@@H](n2cnc3c(N)nc(N)nc32)C[C@@H]1O | 8.59

--- query ---
pIC50 measured on C[C@H](Cn1cnc2c(N)ncnc21)OCP(=O)(O)O [Tenofovir, reference compound] = 5.57

====

tested on: H1299; assay: Cell proliferation CellTiterGlo Ex.2; type: cell-based; details: Homo sapiens, NCI-H1299; H1299 (Lung), 72 h
Measure Name: IC50
Include the unit after the number when you answer.

The compound `C#C[C@]1(CO)O[C@@H](n2cnc3c(=O)[nH]c(N)nc32)C[C@@H]1O` , tested on H1299, showed IC50 of 7.68 µM

====

test system: cancer cell lines; assay: Cancer cell proliferation activity of representative nucleosides, CellTiterGlo 72 h (Example 7, Tables 8 and 9); assay type: cell-based; conditions: Homo sapiens, HCT-15, 72 h, HCT15, colon, 72 h
Measure Name: IC50 (µM)
Your answer should be a plain number; it is taken to be in µM.

Molecule | Unit Tag | IC50
N#C[C@]1(CO)O[C@@H](n2ccc(N)nc2=O)C[C@@H]1O [compound 29] | µM | 0.81
C[C@]1(CO)O[C@@H](n2ccc(N)nc2=O)C[C@@H]1O [compound 30] | µM | 0.54
CC[C@]1(CO)O[C@@H](n2ccc(N)nc2=O)C[C@@H]1O [compound 21] | µM | 9.11
C#C[C@]1(CO)O[C@@H](n2cc(F)c(N)nc2=O)C[C@@H]1O [compound 9] | µM | 4.08

IC50 measured on C#C[C@]1(CO)O[C@@H](n2ccc(N)nc2=O)C[C@@H]1O [compound 7] = 3.28

====

tested on: 786-O; experiment: Cell proliferation CellTiterGlo Ex.2; assay type: cell-based; conditions: Homo sapiens, 786-0; 786-O (Kidney), 72 h
Measure Name: IC50 (µM)
Your answer should be a plain number; it is taken to be in µM.

IC50 measured on C#C[C@]1(CO)O[C@@H](n2cnc3c(=O)[nH]c(N)nc32)C[C@@H]1O [compound 13] = 5.81
